- Test system: HTT mRNA
- EXPERIMENTAL_PROTOCOL: Splicing assay (RT-qPCR) of HTT mRNA alternative junction (AJ) and canonical junction (CJ)
- Type: cell-based
- CONDITION_DETAILS: decrease in CJ mRNA; A673 or K562 cells, 24 hours; read-out: HTT CJ IC50
- Method: Compounds described herein were used to modulate RNA transcript abundance in cells. The expression of a target mRNA was measured by detecting the formation of an exon-exon junction in the canonical transcript (CJ). A compound mediated exon-inclusion event was detected by observing an increase in formation of a new junction with an alternative exon (AJ). […] After treatment, the levels of the HTT mRNA targets were determined from each sample of cell lysate by cDNA synthesis followed by qPCR. […]
pIC50: −log10 of the molar value.
Measured pIC50, listed per entry.

Recorded pIC50, per entry:
COMPOUND	EXPERIMENTAL_ENDPOINT	VAL
Cc1cn2nc(-c3ccc4nc(C5CCNCC5)ccc4n3)c(O)cc2n1	pIC50	6.00 to 7.00
COc1cc2nc(C)oc2cc1-c1ccc2nc(N3CCC(NC(C)(C)C)C3)ccc2n1 (stereo not shown)	pIC50	5.00 to 6.00
Cn1cc2cc(-c3ccc4nc(N5CC[C@@H](NCC6CC6)C5)ccc4n3)c(O)cc2n1	pIC50	6.00 to 7.00
Cn1cc2cc(-c3ccc4nc(N5CC[C@H](NC6(C)CC6)C5)ccc4n3)c(O)cc2n1 (single isomer, unassigned)	pIC50	> 7.00
Cn1cc2cc(-c3ccc4nc(N5CCC(N6CCCC6)C5)ccc4n3)c(O)cc2n1 (stereo not shown)	pIC50	6.00 to 7.00

## Input Which pIC50 value belongs to Cc1nc2cc(O)c(-c3ccc4nc(N5CC[C@H](NC6(C)CC6)C5)ccc4n3)cc2o1 (single isomer, unassigned) ?
## Output > 7.00

## Input Next entry: Cn1cc2cc(-c3ccc4nc(N5CCC(N)C5)ccc4n3)c(O)c(F)c2n1 (stereo not shown)
## Output > 7.00

## Input Next entry: Cn1cc2cc(-c3ccc4nc(N5CCNCC5)ccc4n3)c(O)cc2n1
## Output 5.00 to 6.00

## Input Next entry: CCC1CN(c2ccc3nc(-c4cc5cn(C)nc5cc4O)ccc3n2)CCN1 (stereo not shown)
## Output 6.00 to 7.00

## Input Next entry: O=C(Nc1cn[nH]c1)Nc1cc2nc(N3CCNCC3)ccc2cn1
## Output < 5.00

## Input Next entry: Cn1cc2cc(-c3ccc4nc(C5CCNCC5)ccc4n3)c(C#N)cc2n1
## Output 5.00 to 6.00

## Input Next entry: COc1cc2c(=O)n(C)cnc2cc1-c1ccc2nc(N3CCC(NC(C)(C)C)C3)ccc2n1 (stereo not shown)
## Output < 5.00

## Input Next entry: Cc1nc2c(F)c(O)c(-c3ccc4nc(N5CC[C@H](NC(C)(C)C)C5)ccc4n3)cc2o1 (single isomer, unassigned)
## Output > 7.00

###

- Tested on: SMN2 CJ mRNA
- EXPERIMENTAL_PROTOCOL: Gene panel canonical junction qPCR splicing assay, SMN2
- Assay type: cell-based
- CONDITION_DETAILS: Table 4, read-out: SMN2 IC50 (decrease in CJ mRNA levels)
pIC50: −log10 of the molar value.
Measured pIC50, listed per entry.

## Input Which pIC50 value belongs to Cn1cc2cc(-c3ccc4nc(C5CCNCC5)ccc4n3)c(C(F)F)cc2n1 ?
## Output 5.00 to 6.00

## Input Next entry: Cn1cc2cc(-c3ccc4nc(N5CC(C)(C)NC(C)(C)C5)ccc4n3)c(O)cc2n1
## Output < 5.00

## Input Next entry: CN(C(=O)Nc1cn[nH]c1)c1cc2nc(N3CCNCC3)ccc2cn1
## Output < 5.00

Where do the numbers come from? From patent US20240002375A1.
